# Tested on: Wnt/wg pathway, Wnt-responsive luciferase reporter dTF12
# assay overview: Wg-responsive dTF12 (TOP12) luciferase reporter assay in Drosophila Clone 8 cells, pathway activated by Axin dsRNA
# Assay type: cell-based
# study conditions: Drosophila melanogaster; luciferase assay method in Drosophila Clone 8 cells
measured parameter: IC50 (µM)

As a guide, the following entries are already answered.
smiles	IC50 / µM
CCc1ccc(-c2nc(CSCC(=O)NCc3ccccc3)c(C)o2)cc1	3.51
COc1cccc(/C=C2\SC(=S)N(CCCC(=O)O)C2=O)c1OC	3.06
O=C(CCCN1C(=O)/C(=C/c2cccs2)SC1=S)Nc1ccc(O)cc1	4.76
CCc1ccc(-c2nc(CSCC(=O)NCCc3ccccc3)c(C)o2)cc1	4.18
CCc1ccc(-c2nc(CSCC(=O)N3CCc4ccccc43)c(C)o2)cc1	1.1

[I] Cc1ccc(-c2nc(CSCC(=O)NC3CC3)c(C)o2)cc1
[II] CCc1ccc(-c2nc(CSCC(=O)NC3CC3)c(C)o2)cc1
Looking at recorded values for IC50, does I or II come in lower? I would appreciate it if you answered with the label of your choice. II
(II: 1.58 µM, I: 1260 µM)

###

# Tested on: C57 mg mouse mammary epithelial cell line
# assay overview: C57mg transformation assay (Wnt3a induced)
# Format: cell-based
# study conditions: 10 ng/μl, 5 days, FIG. 5
measured parameter: inhibition of Wnt3a induced C57 mg transformation

compound	assay value
Cc1ccc(-c2nc(CSCC(=O)NC3CC3)c(C)o2)cc1 [IIa-722]	partial reduction
CCc1ccc(-c2nc(CSCC(=O)N3CCc4ccccc43)c(C)o2)cc1 [IIa-2102]	partial reduction
CCc1ccc(-c2nc(CSCC(=O)NC3CC3)c(C)o2)cc1 [IIa-719]	partial reduction
